Entry source: patent US20160368895A1

target desc: human PGI2 receptors (hIP) (Homo sapiens)
Construct: expressed in transfected cells; host or cells: CHO-K1
Sequence (P43119 whole entry): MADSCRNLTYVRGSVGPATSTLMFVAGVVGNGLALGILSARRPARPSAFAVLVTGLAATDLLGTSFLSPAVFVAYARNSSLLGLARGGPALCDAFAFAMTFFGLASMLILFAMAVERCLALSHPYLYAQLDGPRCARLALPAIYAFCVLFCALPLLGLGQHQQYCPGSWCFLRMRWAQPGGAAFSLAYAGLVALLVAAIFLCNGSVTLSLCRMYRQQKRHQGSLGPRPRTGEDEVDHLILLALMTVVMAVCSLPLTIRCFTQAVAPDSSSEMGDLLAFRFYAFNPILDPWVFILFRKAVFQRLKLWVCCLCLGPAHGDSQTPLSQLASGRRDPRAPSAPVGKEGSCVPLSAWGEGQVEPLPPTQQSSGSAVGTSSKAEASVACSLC
method description: Method B: positive allosteric modulator activity, cAMP in CHO/hIP cells with 1 nM epoprostenol
Format: cell-based
run parameters: cAMP relative to 1 nM epoprostenol alone, test concentration 5 uM

- compound: "Cc1ccc2c(c1)CN(C(c1ccccc1C)c1nnnn1C(C)(C)C)CC2 (centres unmarked) [Example 27]"
  target desc: "human PGI2 receptors (hIP) (Homo sapiens)"
  T/C [%]: 99.8
- compound: "Cc1ccccc1C(c1nnnn1C(C)(C)C)N1CCc2ccc(Cl)cc2C1 (centres unmarked) [Example 19]"
  target desc: "human PGI2 receptors (hIP) (Homo sapiens)"
  T/C [%]: 90
- compound: "CC(C)(C)n1nnnc1C(c1ccc(Br)cc1)N1CCc2ccccc2C1 (centres unmarked) [Example 4]"
  target desc: "human PGI2 receptors (hIP) (Homo sapiens)"
  T/C [%]: 100.1
- compound: "COc1csc(C(c2nnnn2C(C)(C)C)N2CCc3ccccc3C2)c1 (centres unmarked) [Example 44]"
  target desc: "human PGI2 receptors (hIP) (Homo sapiens)"
  T/C [%]: 143.8
- compound: "CC(C)(C)n1nnnc1C(c1ccccc1Br)N1CCc2ccc(Cl)cc2C1 (centres unmarked) [Example 17]"
  target desc: "human PGI2 receptors (hIP) (Homo sapiens)"
  T/C [%]: 87

----------
target desc: human PGI2 receptors (hIP) (Homo sapiens)
Construct: expressed in transfected cells; host or cells: CHO-K1
method description: Method A: positive allosteric modulator activity, cAMP in CHO/hIP cells with 100 pM iloprost
Type: cell-based
run parameters: cAMP relative to 100 pM iloprost alone, test compound 10 uM

- molecule: "COCCn1nnnc1C(c1ccc(F)cc1)N1CCc2ccccc2C1 (stereo not drawn)"
  target desc: "human PGI2 receptors (hIP) (Homo sapiens)"
  unit abbrev: "%"
  T/C %: 96
- molecule: "COc1ccc(C(c2nnnn2CS(=O)(=O)c2ccc(C)cc2)N2CCc3ccccc3C2)cc1 (stereo not drawn)"
  target desc: "human PGI2 receptors (hIP) (Homo sapiens)"
  unit abbrev: "%"
  T/C %: 101
- molecule: "CCC(C)(C)n1nnnc1C(c1cc(OC)ccc1O)N1CCc2ccccc2C1 (stereo not drawn)"
  target desc: "human PGI2 receptors (hIP) (Homo sapiens)"
  unit abbrev: "%"
  T/C %: 100
- molecule: "COc1cc(C(c2nnnn2CCc2ccccc2)N2CCc3ccccc3C2)ccc1O (stereo not drawn)"
  target desc: "human PGI2 receptors (hIP) (Homo sapiens)"
  unit abbrev: "%"
  T/C %: 91
- molecule: "Cc1ccc(C(c2nnnn2CCc2ccccc2)N2CCc3ccccc3C2)cc1 (stereo not drawn)"
  target desc: "human PGI2 receptors (hIP) (Homo sapiens)"
  unit abbrev: "%"
  T/C %: 108
- molecule: "CCC(C)(C)n1nnnc1C(c1ccc(Cl)cc1)N1CCc2ccccc2C1 (stereo not drawn)"
  target desc: "human PGI2 receptors (hIP) (Homo sapiens)"
  unit abbrev: "%"
  T/C %: 148
- molecule: "c1ccc(C(c2nnnn2C2CCCCC2)N2CCc3ccccc3C2)cc1 (stereo not drawn) [drawing 120]"
  target desc: "human PGI2 receptors (hIP) (Homo sapiens)"
  unit abbrev: "%"
  T/C %: 112
- molecule: "Cc1ccc(S(=O)(=O)Cn2nnnc2C(c2ccc(C(F)(F)F)cc2)N2CCc3ccccc3C2)cc1 (stereo not drawn)"
  target desc: "human PGI2 receptors (hIP) (Homo sapiens)"
  unit abbrev: "%"
  T/C %: 102
- molecule: "COc1ccc(OC)c(C(c2nnnn2C(C)(C)C)N2CCc3ccccc3C2)c1 (stereo not drawn)"
  target desc: "human PGI2 receptors (hIP) (Homo sapiens)"
  unit abbrev: "%"
  T/C %: 100
- molecule: "COc1cc(C(c2nnnn2Cc2ccccc2)N2CCc3ccccc3C2)ccc1O (stereo not drawn)"
  target desc: "human PGI2 receptors (hIP) (Homo sapiens)"
  unit abbrev: "%"
  T/C %: 94
- molecule: "c1ccc(C(c2nnnn2C2CCCCC2)N2CCc3ccccc3C2)cc1 (stereo not drawn) [drawing 138]"
  target desc: "human PGI2 receptors (hIP) (Homo sapiens)"
  unit abbrev: "%"
  T/C %: 98
- molecule: "c1ccc(CCn2nnnc2C(c2ccccc2)N2CCc3ccccc3C2)cc1 (stereo not drawn) [drawing 106]"
  target desc: "human PGI2 receptors (hIP) (Homo sapiens)"
  unit abbrev: "%"
  T/C %: 128
- molecule: "Cc1ccc(C(c2nnnn2Cc2ccccc2)N2CCc3ccccc3C2)cc1 (stereo not drawn) [drawing 151]"
  target desc: "human PGI2 receptors (hIP) (Homo sapiens)"
  unit abbrev: "%"
  T/C %: 103
- molecule: "COc1ccc(OC)c(C(c2nnnn2C2CCCC2)N2CCc3ccccc3C2)c1 (stereo not drawn)"
  target desc: "human PGI2 receptors (hIP) (Homo sapiens)"
  unit abbrev: "%"
  T/C %: 92
- molecule: "CCC(C)(C)n1nnnc1C(c1ccc(O)c(OC)c1)N1CCc2ccccc2C1 (stereo not drawn)"
  target desc: "human PGI2 receptors (hIP) (Homo sapiens)"
  unit abbrev: "%"
  T/C %: 122
- molecule: "COc1ccc(Cn2nnnc2C(c2ccccc2)N2CCc3ccccc3C2)cc1 (stereo not drawn)"
  target desc: "human PGI2 receptors (hIP) (Homo sapiens)"
  unit abbrev: "%"
  T/C %: 104
- molecule: "Cc1ccc(Cn2nnnc2C(c2ccc(Cl)cc2)N2CCc3ccccc3C2)cc1 (stereo not drawn)"
  target desc: "human PGI2 receptors (hIP) (Homo sapiens)"
  unit abbrev: "%"
  T/C %: 109
- molecule: "CN(C)c1ccc(C(c2nnnn2C2CCCC2)N2CCc3ccccc3C2)cc1 (stereo not drawn)"
  target desc: "human PGI2 receptors (hIP) (Homo sapiens)"
  unit abbrev: "%"
  T/C %: 103
- molecule: "COc1ccc(C(c2nnnn2C2CCCCC2)N2CCc3ccccc3C2)c(OC)c1 (stereo not drawn)"
  target desc: "human PGI2 receptors (hIP) (Homo sapiens)"
  unit abbrev: "%"
  T/C %: 113
- molecule: "COc1ccc(C(c2nnnn2Cc2ccc(C)cc2)N2CCc3ccccc3C2)cc1 (stereo not drawn)"
  target desc: "human PGI2 receptors (hIP) (Homo sapiens)"
  unit abbrev: "%"
  T/C %: 112
- molecule: "COc1cc(C(c2nnnn2Cc2ccc(F)cc2)N2CCc3ccccc3C2)ccc1O (stereo not drawn)"
  target desc: "human PGI2 receptors (hIP) (Homo sapiens)"
  unit abbrev: "%"
  T/C %: 91
